B1: glmS ribozyme (parent)
chain: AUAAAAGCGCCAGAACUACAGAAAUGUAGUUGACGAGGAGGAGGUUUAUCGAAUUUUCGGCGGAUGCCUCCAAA

# Variants of: B1
# Assay Procedure: kcat; higher = faster cleavage; RNA array
# Condition Summary: with glucosamine-6-phosphate
Variants at the floor of the assay were thinned out.
Reported kcat values for the following variants.
Use s⁻¹ as the unit, but write only the number.

Use these answered entries as a reference point.
Mutant Label	kcat, s⁻¹
C58U A64C C70A	1.83e-05
G29A A39C	0.000943
G13U U31A	0.000483

Task: Which value of kcat has been reported for U45G U65A in the records?
Output: 0.0042

Task: Which value of kcat has been reported for U31A G32C in the records?
Output: 0.000234

Task: Which value of kcat has been reported for G40C U46G in the records?
Output: 0.000983

Task: Which value of kcat has been reported for U47G U65G in the records?
Output: 0.00249
